What MIC was measured for each of the following?
Test system: Escherichia coli
Experiment: Antibacterial activity against Escherichia coli ATCC 25922 after 16 to 20 hrs by microbroth dilution method
Format: functional
Answers are plain numbers, in µg/mL.

Field: example entries. Status: answers known.
INSERT INTO results (smiles_data, tested_on, measured_parameter, recorded_value) VALUES
  ('CCn1c(Cc2csc3nc(-c4ccc(Br)cc4)cn23)n[nH]c1=S', 'Escherichia coli', 'MIC', 64),
  ('CCCCn1c(Cc2csc3nc(-c4ccc(Br)cc4)cn23)n[nH]c1=S', 'Escherichia coli', 'MIC', 32),
  ('CCNc1nnc(Cc2csc3nc(-c4ccc(Br)cc4)cn23)s1', 'Escherichia coli', 'MIC', 32),
  ('Cc1ccc(-n2c(Cc3csc4nc(-c5ccc(Br)cc5)cn34)n[nH]c2=S)cc1', 'Escherichia coli', 'MIC', 64);

The record that follows has no MIC shown yet.
Recorded result, CCCn1c(Cc2csc3nc(-c4ccc(Br)cc4)cn23)n[nH]c1=S , MIC: 64
